test: Intrinsic clearance in rat hepatocytes by MS/MS analysis; assay type: ADME, cell-based, Hepatocyte; details: read-out: CLH (converted)
quantity measured: predicted hepatic clearance (mL/min/kg)

Field: example entries. Status: answers known.
{"compound": "COCCn1c(=O)n(CCc2ccccc2)c(=O)c2c(C)c(Cc3nc[nH]c3C)sc21", "predicted hepatic clearance [mL/min/kg]": 66.7}
{"compound": "COCCn1c(=O)n(CCc2ccccc2)c(=O)c2c(C)c(C(O)C3CC3)sc21 (stereo unspecified)", "predicted hepatic clearance [mL/min/kg]": 68.3}
{"compound": "COCCn1c(=O)n(CCc2ccccc2)c(=O)c2c(C)c(C(N)=O)sc21", "predicted hepatic clearance [mL/min/kg]": 65}
{"compound": "COCCn1c(=O)n(CCc2ccccc2)c(=O)c2c(C)c(C(C)(O)C3CC3)sc21 (stereo unspecified)", "predicted hepatic clearance [mL/min/kg]": 66.7}
{"compound": "Cc1csc2c1c(=O)n(CCc1ccccc1)c(=O)n2Cc1cnc[nH]1", "predicted hepatic clearance [mL/min/kg]": 46.7}

[1] COCCn1c(=O)n(CCc2ccccc2)c(=O)c2c(C)c(CN3CCCC3)sc21
[2] CCN(CCO)C(=O)c1sc2c(c1C)c(=O)n(CC)c(=O)n2CCC(F)(F)F
Quick one: lower predicted hepatic clearance, 1 or 2 ? Please reply using the label of the selected record.
2
(2: 40 mL/min/kg, 1: 61.7 mL/min/kg)

[P] CCN(CC)C(=O)c1sc2c(c1C)c(=O)n(CCc1ccccc1)c(=O)n2CCOC
[Q] COCCn1c(=O)[nH]c(=O)c2c(C)csc21
Given P and given Q , which shows the smaller recorded predicted hepatic clearance? Respond using the label that marks the chosen record.
Q

---

experiment: Clearance in dog plasma at 0.3 mg/kg, iv administered as bolus dose by HPLC-MS/MS analysis; assay type: ADME, organism-based, Canis lupus familiaris
quantity measured: clearance (mL/min/kg)
Report the figure in mL/min/kg without appending any unit label.

Endpoint output: clearance of "CCn1c(=O)c2c(C)c(C(=O)N3CCC(O)CC3)sc2n(CCC(F)(F)F)c1=O" . Value?
6.67

---

Target: Adenosine receptor A2b (Mus musculus)
Sequence (Q60614 whole entry): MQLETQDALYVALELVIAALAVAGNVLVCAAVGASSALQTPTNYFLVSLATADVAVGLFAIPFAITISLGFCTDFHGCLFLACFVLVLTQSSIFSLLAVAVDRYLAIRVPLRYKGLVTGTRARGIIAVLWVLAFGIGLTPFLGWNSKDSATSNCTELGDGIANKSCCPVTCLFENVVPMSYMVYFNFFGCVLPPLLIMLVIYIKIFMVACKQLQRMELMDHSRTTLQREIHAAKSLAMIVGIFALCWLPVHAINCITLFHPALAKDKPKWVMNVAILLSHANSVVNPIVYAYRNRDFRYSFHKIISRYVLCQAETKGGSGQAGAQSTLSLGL
Assay: Antagonist activity at recombinant mouse A2B adenosine receptor expressed in CHO cells after 3 to 4 hrs by luciferase reporter gene assay
quantity measured: IC50 (nM)
Just the number please, in nM, no unit attached.

Consider the compound shown here: "CCn1c(=O)c2c(C)c(C(=O)N3CCC(O)CC3)sc2n(CCC(F)(F)F)c1=O" What is its recorded IC50?
400

---

assay: Aqueous solubility of the compound in phosphate buffer at pH 6.5 after 24 hrs by LC/MS/MS analysis; format: physicochemical
quantity measured: solubility at 24 h (µg/mL)
Hi! Could you send only the number? It should be in µg/mL, unit omitted.

Returns the measured solubility at 24 h for the input compound. Input: "CCn1c(=O)c2c(C)c(C(=O)N3CCC(O)CC3)sc2n(CCC(F)(F)F)c1=O"
410

---

Sequence of the target: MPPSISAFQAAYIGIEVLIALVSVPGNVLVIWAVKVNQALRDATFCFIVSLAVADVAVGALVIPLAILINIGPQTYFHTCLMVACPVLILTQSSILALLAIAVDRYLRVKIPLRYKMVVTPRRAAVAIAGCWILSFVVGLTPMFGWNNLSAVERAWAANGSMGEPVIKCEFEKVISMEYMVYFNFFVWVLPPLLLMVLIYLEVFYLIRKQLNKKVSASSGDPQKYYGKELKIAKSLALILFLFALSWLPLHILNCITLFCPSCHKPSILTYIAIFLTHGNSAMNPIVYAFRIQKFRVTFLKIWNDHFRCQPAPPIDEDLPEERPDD
quantity measured: Ki

Fill in: Ki of "CCn1c(=O)c2c(C)c(C(=O)N3CCC(O)CC3)sc2n(CCC(F)(F)F)c1=O" is ___
> 1 µM

---

assay: MRT in rat at 1 mg/kg, po for 15 mins by HPLC-MS/MS analysis; assay type: ADME, organism-based; conditions: in vivo
quantity measured: MRT (h)
Give just the number in h; leave the unit off.

Recorded MRT of "CCn1c(=O)c2c(C)c(C(=O)N3CCC(O)CC3)sc2n(CCC(F)(F)F)c1=O" , please.
2

---

assay: MRT in rat at 0.3 mg/kg, iv administered as infusion for 15 mins by HPLC-MS/MS analysis; assay type: ADME, organism-based; conditions: in vivo
quantity measured: MRT (h)
Field: numeric (h). Do not append units.

Given "CCn1c(=O)c2c(C)c(C(=O)N3CCC(O)CC3)sc2n(CCC(F)(F)F)c1=O" , state its recorded MRT.
1.3

---

Protein target, amino acids: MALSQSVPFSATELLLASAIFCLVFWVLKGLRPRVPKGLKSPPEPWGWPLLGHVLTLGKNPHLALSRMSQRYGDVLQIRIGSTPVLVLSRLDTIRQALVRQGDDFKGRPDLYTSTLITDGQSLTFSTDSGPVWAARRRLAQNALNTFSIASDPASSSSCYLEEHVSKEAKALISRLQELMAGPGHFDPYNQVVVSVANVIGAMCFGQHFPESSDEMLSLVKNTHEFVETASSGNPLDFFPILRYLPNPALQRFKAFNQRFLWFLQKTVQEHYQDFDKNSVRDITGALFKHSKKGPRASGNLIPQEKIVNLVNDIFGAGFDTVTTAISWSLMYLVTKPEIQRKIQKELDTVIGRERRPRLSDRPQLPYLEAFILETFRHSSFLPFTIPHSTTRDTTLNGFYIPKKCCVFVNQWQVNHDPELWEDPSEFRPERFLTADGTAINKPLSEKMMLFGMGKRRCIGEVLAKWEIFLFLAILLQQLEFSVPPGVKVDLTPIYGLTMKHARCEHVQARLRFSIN
pIC50: −log10 of the molar value.
quantity measured: pIC50

Any idea what its pIC50 is? The molecule is "CCn1c(=O)c2c(C)c(C(=O)N3CCC(O)CC3)sc2n(CCC(F)(F)F)c1=O"
< 4.70

---

assay: Fraction unbound in mouse plasma by equilibrium dialysis method; assay type: ADME, cell-free
quantity measured: fraction unbound
Would you mind answering with just the numeric figure?

Look up fraction unbound for this compound: "CCn1c(=O)c2c(C)c(C(=O)N3CCC(O)CC3)sc2n(CCC(F)(F)F)c1=O"
0.3

---

target: Adenosine receptor A2b (Homo sapiens, UniProt P29275); experiment: Displacement of [3H]DPCPX from human A2B adenosine receptor expressed in HEK293 cell membranes after 60 mins by radioligand displacement assay
Sequence (P29275 whole entry): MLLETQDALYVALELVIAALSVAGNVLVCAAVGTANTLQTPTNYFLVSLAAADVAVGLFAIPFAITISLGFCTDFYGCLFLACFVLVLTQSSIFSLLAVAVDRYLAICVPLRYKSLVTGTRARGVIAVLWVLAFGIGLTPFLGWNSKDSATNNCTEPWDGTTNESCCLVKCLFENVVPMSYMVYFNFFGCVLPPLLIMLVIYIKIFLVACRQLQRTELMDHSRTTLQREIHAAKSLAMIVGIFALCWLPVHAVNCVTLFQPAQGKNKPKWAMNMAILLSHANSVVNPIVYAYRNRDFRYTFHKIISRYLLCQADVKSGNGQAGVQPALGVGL
Parameter: IC50. Scope: all listed entries.

Please review the entries below; each comes with its answer.
{"smiles representation": "CCn1c(=O)c2c(C)c(C(=O)N3CCC(O)CC3)sc2n(CCC(F)(F)F)c1=O", "quantity measured": "IC50", "measured result": "0.059 to 0.066 µM"}
{"smiles representation": "COCCn1c(=O)[nH]c(=O)c2c(C)csc21", "quantity measured": "IC50", "measured result": "> 10 µM"}
{"smiles representation": "COCCn1c(=O)n(CCC2CCOCC2)c(=O)c2c(C)csc21", "quantity measured": "IC50", "measured result": "> 10 µM"}

The record that follows has no IC50 shown yet.
What value of IC50 has been reported for the following compound? "COCCn1c(=O)n(Cc2ccccc2)c(=O)c2c(C)csc21"
> 10 µM

---

assay: Intrinsic clearance in rat hepatocytes by MS/MS analysis; assay type: ADME, cell-based, Hepatocyte; settings: read-out: CLH (converted)
quantity measured: predicted hepatic clearance (mL/min/kg)

{"molecule": "COCCn1c(=O)n(CCc2ccccc2)c(=O)c2c(C)c(Cn3ccnc3)sc21", "measurement unit": "mL/min/kg", "predicted hepatic clearance": 58.3}
{"molecule": "COCCn1c(=O)n(CCc2ccccc2)c(=O)c2c(C)c(C(=O)O)sc21", "measurement unit": "mL/min/kg", "predicted hepatic clearance": 55}
{"molecule": "CCN(CC)C(=O)c1sc2c(c1C)c(=O)n(CCOC)c(=O)n2CCC(F)(F)F", "measurement unit": "mL/min/kg", "predicted hepatic clearance": 60}
{"molecule": "COCCn1c(=O)n(CC(F)(F)c2ccccc2)c(=O)c2c(C)csc21", "measurement unit": "mL/min/kg", "predicted hepatic clearance": 66.7}
{"molecule": "COCCn1c(=O)n(CCc2ccccc2)c(=O)c2c(C)c(C(O)c3ccccc3)sc21 (configuration not stated)", "measurement unit": "mL/min/kg", "predicted hepatic clearance": 68.3}
{"molecule": "Cc1csc2[nH]c(=O)n(CCc3ccccc3)c(=O)c12", "measurement unit": "mL/min/kg", "predicted hepatic clearance": 58.3}
{"molecule": "COCCn1c(=O)n(CCc2ccccc2)c(=O)c2c(C)c(Cc3c[nH]c(C)n3)sc21", "measurement unit": "mL/min/kg", "predicted hepatic clearance": 61.7}
{"molecule": "COCCn1c(=O)n(CCc2ccccc2)c(=O)c2c(C)csc21", "measurement unit": "mL/min/kg", "predicted hepatic clearance": 66.7}
{"molecule": "Cc1[nH]cnc1Cn1c(=O)n(CCc2ccccc2)c(=O)c2c(C)csc21", "measurement unit": "mL/min/kg", "predicted hepatic clearance": 56.7}
{"molecule": "COCCn1c(=O)n(CCc2cccnc2)c(=O)c2c(C)csc21", "measurement unit": "mL/min/kg", "predicted hepatic clearance": 61.7}
{"molecule": "Cc1csc2c1c(=O)n(CCc1ccccc1F)c(=O)n2CCC(F)(F)F", "measurement unit": "mL/min/kg", "predicted hepatic clearance": 68.3}

The origin of these recorded values is ChEMBL document CHEMBL4422615.
